- System: HCC-44
- test: relative viability (nuclei count vs DMSO), 5 days (fraction); higher = more cells survive
- assaySetup: first compound 2 µM
API: label(entry) gives criterion met if the entry's relative viability is strictly smaller than 0.9; on equality or larger values it gives criterion not met.

compound="COCC1(CO)C(=O)C2CCN1CC2 (configuration not stated) [PRIMA-1MET] + N=C(N)NC(=N)NCCc1ccccc1 [Phenformin] (partner 250 µM)" classname="criterion met"
compound="COCC1(CO)C(=O)C2CCN1CC2 (configuration not stated) [PRIMA-1MET] + C[C@]1(O)C[C@@H](c2nc(-c3ccc4ccc(-c5ccccc5)nc4c3)c3c(N)nccn32)C1 [Linsitinib] (partner 1 µM)" classname="criterion met"
compound="COCC1(CO)C(=O)C2CCN1CC2 (configuration not stated) [PRIMA-1MET] + COc1cccc2cc(-c3nc([C@H]4CC[C@H](C(=O)O)CC4)n4ncnc(N)c34)[nH]c12 [OSI-027] (partner 0.5 µM)" classname="criterion met"
compound="COCC1(CO)C(=O)C2CCN1CC2 (configuration not stated) [PRIMA-1MET] + CC(=O)c1c(C)c2cnc(Nc3ccc(N4CCNCC4)cn3)nc2n(C2CCCC2)c1=O [Palbociclib] (partner 0.5 µM)" classname="criterion not met"
compound="COCC1(CO)C(=O)C2CCN1CC2 (configuration not stated) [PRIMA-1MET] + O=C(CCCCCCC(=O)Nc1ccccc1)NO [Vorinostat] (partner 1 µM)" classname="criterion not met"
compound="COCC1(CO)C(=O)C2CCN1CC2 (configuration not stated) [PRIMA-1MET] + Nc1nc2[nH]cc(CCc3ccc(C(=O)N[C@@H](CCC(=O)O)C(=O)O)cc3)c2c(=O)[nH]1 [Pemetrexed] (partner 0.2 µM)" classname="criterion met"
compound="COCC1(CO)C(=O)C2CCN1CC2 (configuration not stated) [PRIMA-1MET] + CC(C)C[C@H](NC(=O)[C@H](Cc1ccccc1)NC(=O)c1cnccn1)B(O)O [Bortezomib] (partner 0.002 µM)" classname="criterion not met"
